test system: guinea-pig pulmonary parenchyma; assay: L. Parenchyma: guinea-pig pulmonary parenchyma contraction antagonism induced by LTB4 (Sirois); assay type: cell-based; details: Cavia porcellus; Table XIX; guinea-pig pulmonary parenchyma contraction induced by LTB4; read-out: IC50 L. Parenchyma
Measure name: IC50 (µM)

// field: IC50; key: O=C(O)CCCCOc1cc(-c2ccccc2)cc(-c2ccccc2)n1 ; value = 2

What the record says about CC(C)(CCCCOc1cc(-c2ccccc2)cc(C(C)(C)C)n1)C(=O)O : IC50 is 1

Recorded IC50 (compound O=C(O)CCCCCOc1cc(-c2ccccc2)cc(-c2ccccc2F)n1 ): 0.06

// field: IC50; key: CC(C)(CCCCOc1cc(-c2ccccc2)cc(-c2ccsc2)n1)C(=O)O ; value = 0.1

The compound O=C(O)CCCCCOc1cc(-c2ccccc2)cc(-c2cccs2)n1 showed IC50 equal to 0.3

[I] CC(CCCCOc1cc(-c2cccc(Cl)c2)cc(-c2ccccc2)n1)C(=O)O (stereo not shown)
[II] O=C(O)CCCCCOc1cc(-c2ccc3c(c2)OCO3)cc(-c2ccccc2)n1
[III] c1ccc(-c2cc(OCCCCCc3nn[nH]n3)nc(-c3ccccc3)c2)cc1
query: Please list these compounds in decreasing order of IC50. Put the labels in the order asked and list them.
result: I, III, II
(I: 1 µM, III: 0.01 µM, II: 0.005 µM)
